# credit: ChEMBL document CHEMBL4651341

# remaining at 1.5 h, 1 µM per record follows
# procedureDetails: Percentage of parent compound remaining after incubation for 90 minutes with cyropreserved mouse hepatocytes at a concentration of 1uM compound and […], determined by LCMS
# Format: ADME, tissue-based, Hepatocyte
# experimentalSetup: cryopreserved mouse hepatocytes, read-out: Stability
// note: answer is a bare numeric in %

{"structureString": "CC(C)c1cc(-c2cn3c(-c4ccc5[nH]ncc5c4F)c(C(C)C)nc3cn2)ccc1F", "remaining at 1.5 h, 1 µM [%]": 46.2}

Query: Quick one: give measured remaining at 1.5 h, 1 µM for CC(C)c1nc2cnc(-c3ccc(F)c(C(F)(F)F)c3)cn2c1-c1ccc2[nH]ncc2c1
Result: 41.3

Query: For the compound Fc1c(-c2c(C3CC3)nc3cnc(-c4cccc(S(F)(F)(F)(F)F)c4)cn23)ccc2[nH]ncc12 , give its reported remaining at 1.5 h, 1 µM.
Result: 80.9

Query: Write down remaining at 1.5 h, 1 µM measured for item Oc1cc(F)c(-c2c(C3CC3)nc3cnc(-c4ccc(F)c(C(F)(F)C(F)(F)F)c4)cn23)c(F)c1
Result: 54.3

Query: Determine its reported remaining at 1.5 h, 1 µM: Fc1c(-c2c(C(F)(F)F)nc3cnc(-c4cccc(C(F)(F)F)c4)cn23)ccc2[nH]ncc12
Result: 69

Query: Please indicate remaining at 1.5 h, 1 µM recorded for Fc1ccc(-c2cn3c(-c4ccc5[nH]ncc5c4F)c(C(F)(F)F)nc3cn2)cc1CC(F)(F)F
Result: 55.8
